- assayed_target: pooled human IgG (human IgG1,2,3 and 4)
measurement_kind: Enzyme Activity Endpoint Assay (purified): Fc (ng/µL)
API: value field is a number in ng/µL; no unit string.

For PRT-347 (protein) MSQTEDSESLQRLRDIEDFQAEKEMQNVVYTKWLDGVDVKDHDFRKIVDGNSAYYATPLLNGRGWYDINKDFNRDSDKCAAAVAANMFHYWLDINRDNVDRFLRQNPEKHGIIELPDGQLKLSDFLNTYESDHGYRDKSKLFDFISNNFNGPVWTDKLLDNYINGYAYNYKYGRTIEDPTKNTSKINFFKEVFNEKILTNNHSIRNQNEFSVLLSEALYTGKAIGLSYGPAGLRHSLGHIISVWGADLDADGNVVAIYVTDSDDKKLTIGDERVGLKRYKISTDDENRLRLTAYEETHNTGGQVRGLWTLDTGKYAWADYFDKTEQTGTDQAEQ the protein record lists Enzyme Activity Endpoint Assay (purified): Fc as 397

Entry PRT-350 (protein) MSQTEDSESLQRLRDIEDFQAEKKDQNVVYTKWLDGVDVKDHDFRKIVDGNSAYYATPLLNGRGWYDINKDFNRDSDKCAAAVAANMFHYWLDINRDNVDRFLRQNPEKHGIIELPDGQLKLSDFLNTYESDHGYRDKSKLFDFISENFNGPVWTDKLLDNYINGYAYNYKYGRTIEDPTKNTSKINFFKEVFNEKILTNNHSIRNQNEFSVLLIEALYTGKAIGLSYGPAGLRHSLGHIISVWGADLDADGNVVAIYVTDSDDKKLTIGDERVGLKRYKISTDDENRLRLTAYEETHNTGGQVRGLWTLDTGKYAWADYFDKTEQTGTDQAEQ , Enzyme Activity Endpoint Assay (purified): Fc reported as 243

// Enzyme Activity Endpoint Assay (purified): Fc value for PRT-520 (protein) MVTSVWTKGVTPPTDFRKIVDGNIAYYHAPYKAGQGWYDITKAFDGGDNLLCGAATAGNMLHWWFDQNKEYIEAYLKKHPEKQKIIFNNQELFDLKAAINTKGSQKNSELFNYFRDKAFPNLSARRLGVFPDLVLDMFINGYYLNVTKTQTTDVNRTYQEKDKRGGIFDAVFTRGVQSKLLTSRHDLKNKGLKEISDLIKQELTEGKALGLSHTYANVRINHVINLWGADFDSDGNLKAIYVTDSDTNASIGMKKYFVGVNSAGKVAISAKEIKEDNIGAQVLGLFTLSTGQDIWNQTNLEHHHHHH : 265

Just so you know, measured Enzyme Activity Endpoint Assay (purified): Fc for PRT-473 (protein) MVTSVWTKGVTPPTDFRKIVDGNIAYYHAPYKAGQGWYDITKTFNGKDDLLCGAATAGNMLHWWFDQNKEQIENYLKKHPEKQKINFNGEQMFDVKEAIDTKDSQLDSKLFEYFKEKAFPYLSTKHLGVFPDHVIDMFINGYRLSLTNHGPTPVKRGSKDPRGGIFDAVFTRGDQSKLLTNRHDFKEKTLKEISDLIKQELTEGKALGISHTYANVRINHVINLWGADFDAEGNLEAIYVTDSDSNASIGMKKYFVGVNSNGKVAISAKEIEEDNIGAQVLGLFTLSTGQDIWNQTNLEHHHHHH came out at 384

Lab note: PRT-334 (protein) MTITSVWTKGVTPPTPEDFRENNEDVLHAPYVANQGWYDITKTFDGKDNLLCGAATAGNMLHWWFDQNKEEIERYLKKHPEKQKIIFGNQELFDVKAAIDTKDSQTNSKLFDYFRDKAFPGLSARQLGVFPDLVLDMFINGYYLNLGKTQSTDVNRPYQDKDKRGGIFDAVFTRGVQTTLLTARHDLKNKGLNEISDLIKQELTEGKALALSHTYANVRINHVINLWGADFDAEGELIAIYVTDSDANPSIGMKKYFVGRNANGKVAISAKKIEGDNIGAQVLGLFTLSTGQDIWQKLS gave Enzyme Activity Endpoint Assay (purified): Fc of 257

Lab note: PRT-492 (protein) MVTSVWTKGVTPPTDFRKIVDGNIAYYHAPYKAGQGWYDITKAFDGGDNLLCGAATAGNMLHWWFDQNKEQIENYLKKHPEKQKIIFNNQELFDLKAAIDTKDSQTNSELFNYFKEKAFPYLSTKHLGVFPDHVIDMFINGYRLSLTNHGPTPVKRGSKDKRGGIFDAVFTRGVQSKLLTNRHDLKNKTLKEISDLIKQELTEGKALGISHTYANVRINHVINLWGADFDAEGNLEAIYVTDSDTNASIGMKKYFVGVNSNGKVAISAKEIEEDNIGAQVLGLFTLSTGQDIWNQTNLEHHHHHH gave Enzyme Activity Endpoint Assay (purified): Fc of 207

Form field Enzyme Activity Endpoint Assay (purified): Fc, entry PRT-353 (protein) MSQTEDSESLQRLRDIEDFQAEKEMQNVVYTKWLDGVDVKDHDFRKIVDGNSAYYATPLLNGRGWYDINKDFNRDSDKCAAAVAANMFHYWLDINRDNVDRFLRQNPEKHGIIELPDGQLKLSDFLNTYESDHGYRDKSKLFDFISENFNGPVWTDKLLDNYINGYAYNSKYGRTIEDPTKNTSKINFFKEVFNEKILTNNHSIRNQNEFSVLLIEALYTGKAIGLSYGPAGLRHGLGHIISVWGADLDADGNVVAIYVTDSDDKKLTIGDERVGLKRYKISTDDENRLRLTAYEETHNTGGQVRGLWTLDTGKYAWADYFDKTEQTGTDQAEQ : 259

Lab note: measured Enzyme Activity Endpoint Assay (purified): Fc of PRT-515 (protein) MITSVWTKGVTPPTDFIKGEDVFHAPYKAGQGWYDITKAFDGGDDLLCGAATAGNMLHWWFDQNKEEIEAYLKKHPEKQKIMFGDQELLDVRKVINTKDSQTNSALFNYFKDKAFPNLSARRLGVMPDLVLDMFINGYYLNVYKTQTTDVNRQEQTKDRRGGIFDAVFGRGDQTKLLTERHDLKNKTLNEISQLIKQELTEGKALGLSHTYANVRINHVINLWGADFDAEGNLEAIYVTDSDSNASIGMKKYFVGVNSAGKVAISAKEIKEDNIGAQVLGLFTLSTGQKIWNKTNLEHHHHHH was 0
